Listing of entries alongside the reported IC50.
target: human CD40-CD40L (Homo sapiens, UniProt P29965); construct: purchased Enzo Life Sciences (San Diego, Calif.); assay: Cell-free ELISA-type CD40-CD40L binding inhibition assay; conditions: Table 2; read-out: IC50 CD40
METRIC_NAME: IC50

# SMILES_CODE, EXPERIMENTAL_RESULT
data = [
    ("O=C(Nc1ccc(-c2ccc(C(=O)Nc3ccc(C(=O)O)c4ccccc34)cc2)cc1)c1ccc([N+](=O)[O-])cc1", "400 nM"),
    ("COC(=O)c1ccc(C(=O)Nc2ccc(-c3ccc(C(=O)Nc4cccc5cccc(S(=O)(=O)O)c45)cc3)cc2)cc1", "100 nM"),
    ("COC(=O)c1cccc2c(NC(=O)c3ccc(-c4ccc(NC(=O)c5ccc([N+](=O)[O-])cc5)cc4)cc3)cccc12", "916000 nM"),
]

====

Molecular target: human CD40-CD40L (Homo sapiens)
Construct: purchased Enzo Life Sciences (San Diego, Calif.)
Sequence (P29965 116-261 limits assumed): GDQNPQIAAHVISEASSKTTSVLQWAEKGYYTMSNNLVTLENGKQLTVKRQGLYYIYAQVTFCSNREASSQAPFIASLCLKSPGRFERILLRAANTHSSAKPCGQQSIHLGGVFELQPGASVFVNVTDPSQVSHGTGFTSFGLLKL
Experiment: Cell-free ELISA-type CD40-CD40L binding inhibition assay
Conditions: IC50, inhibition of the CD40-CD40L interaction, cell-free binding, n=3 independent experiments
pIC50: −log10 of the molar value.
METRIC_NAME: pIC50

# MOLECULE, TGT, EXPERIMENTAL_RESULT
data = [
    ("O=C(Nc1ccc(-c2ccc(C(=O)Nc3cccc4cccc(S(=O)(=O)O)c34)cc2)cc1)c1ccc([N+](=O)[O-])cc1 [Compound 21041]", "human CD40-CD40L (Homo sapiens)", 6.51),
    ("O=C(Nc1ccc(-c2ccc(C(=O)Nc3ccc(C(=O)O)c4ccccc34)cc2)cc1)c1ccc([N+](=O)[O-])cc1 [Compound 25441]", "human CD40-CD40L (Homo sapiens)", 6.44),
]

====

target: human CD40-CD40L (Homo sapiens); construct: purchased Enzo Life Sciences (San Diego, Calif.); test: Cell-free ELISA-type CD40-CD40L binding inhibition assay; details: cell-free binding, n=3 independent experiments; read-out: IC50, inhibition of the CD40-CD40L interaction

# COMPOUND, IC50
records = [
    ("O=C(Nc1ccc2c(O)c(N=Nc3ccc(N=Nc4ccc(S(=O)(=O)[O-])cc4)cc3S(=O)(=O)[O-])c(S(=O)(=O)[O-])cc2c1)Nc1ccc2c(O)c(N=Nc3ccc(N=Nc4ccc(S(=O)(=O)[O-])cc4)cc3S(=O)(=O)[O-])c(S(=O)(=O)[O-])cc2c1.[Na+].[Na+].[Na+].[Na+].[Na+].[Na+] [DR80, direct red 80, reference compound]", "2.26 µM"),
    ("COC(=O)c1ccc(C(=O)Nc2ccc(-c3ccc(C(=O)Nc4cccc5cccc(S(=O)(=O)O)c45)cc3)cc2)cc1", "0.14 µM"),
]
